Each recorded value in this set is attributed to PubChem BioAssay AID743343.

tested on: Drosophila melanogaster bursicon receptor LGR2 (rickets); test: blockers of bursicon-stimulated LGR2 cAMP reporter – cell-based, HEK293, CRE-luciferase reporter, cherry pick, set 2, dose response (AID 743343); conditions: bursicon-induced cAMP antagonist; series mostly up to 35 µM
Potency and affinity values are given separately. Calls of active or inactive are those of the source. How the calls were made is not given here.
test_readout: outcome

> print(dat)
                                   compound                     target.or.test.system  observed.result
1  C[C@@H]1CN([C@H](C)CO)C(=O)c2cc(NC(=O)Nc3cccc4ccccc34)ccc2O[C@@H]1CN(C)C(=O)Nc1ccccc1  Drosophila melanogaster bursicon receptor LGR2 (rickets)         inactive
2  CC1(c2ccccc2Cl)NC(=O)N(CC(=O)N2CCc3ccccc32)C1=O (stereo not given)  Drosophila melanogaster bursicon receptor LGR2 (rickets)         inactive
3  O=S(=O)(Nc1ccc(O)c2ccccc12)c1ccc(OC(F)(F)F)cc1  Drosophila melanogaster bursicon receptor LGR2 (rickets)         inactive
4  CC(=O)Nc1cccc(-c2ccnc3c2CC(C(=O)NCc2cccnc2)O3)c1 (stereo not given)  Drosophila melanogaster bursicon receptor LGR2 (rickets)         inactive
5  C=CCn1c(SCC(=O)Nc2ncc(Cc3ccc(C)c(Cl)c3)s2)nnc1-c1ccncc1  Drosophila melanogaster bursicon receptor LGR2 (rickets)         inactive

* * *

system: Drosophila melanogaster bursicon receptor LGR2 (rickets); test: blockers of bursicon-stimulated LGR2 cAMP reporter – cell-based, HEK293, CRE-luciferase reporter, cherry pick, set 2, dose response (AID 743343); settings: bursicon-induced cAMP antagonist; series mostly up to 35 µM
Results with a measured potency or affinity are listed apart. The source made the active and inactive calls. The rule behind the calls is not given here.
test_readout: outcome

> print(dat)
                                    compound  observed.result
 1  C[C@H]1CN([C@@H](C)CO)C(=O)Cc2cc(NC(=O)Nc3ccc(F)cc3)ccc2O[C@H]1CN(C)CC1CCCCC1         inactive
 2         O=C(CN1CCOc2ccccc21)NCc1ccc(F)cc1         inactive
 3  CC(C)c1ccc(NC(=O)N2CCN(S(=O)(=O)c3ccccc3)CC2)cc1         inactive
 4  Cc1cc(Cl)ccc1OCCCC(=O)Nc1cc(S(=O)(=O)N2CCOCC2)ccc1N1CCOCC1         inactive
 5  CC(C)CCNC(=O)C(c1ccc(O)cc1)N(Cc1cccs1)C(=O)C1COc2ccccc2O1 (stereo unspecified)         inactive
 6  COc1ccccc1CNS(=O)(=O)c1ccc(N2CCCC2)cc1Br         inactive
 7  COc1ccc(CCNC(=O)C2CCN(S(=O)(=O)c3ccc(Cl)cc3)CC2)cc1OC         inactive
 8                CNCc1ccccc1Sc1ccc(O)c(O)c1         inactive
 9  CCCCC(=O)N(C)c1c(C)nc2ccc(C(=O)N3CCCCC3)cn12         inactive
10  CC(=O)c1c(C)[nH]c(C(=O)CN2C(=O)NC(C)(c3ccc(C)cc3)C2=O)c1C (stereo unspecified)         inactive
11  COc1ccc(N(CC(=O)NCc2cccs2)S(=O)(=O)c2ccc(C(C)=O)cc2)cc1         inactive
12                       CCc1nnc2cccc(Cl)n12         inactive
13  CC1CCN(C(=O)c2ccc(S(=O)(=O)Cc3cc(F)ccc3F)c([N+](=O)[O-])c2)CC1         inactive
14  CCOC(=O)C1=CCN(S(=O)(=O)c2ccccc2C)C1c1cccc(C)c1 (stereo unspecified)         inactive
15  CC1CN(C(=O)c2cccc(S(=O)(=O)Nc3cc(Cl)ccc3Cl)c2)CC(C)O1 (stereo unspecified)         inactive
16  CCOC(=O)C(C)N1c2cccc3cccc(c23)S1(=O)=O (stereo unspecified)         inactive
17  O=C(Nc1cc(S(=O)(=O)Nc2ccccc2Cl)ccc1O)c1ccc(F)cc1F         inactive
18        CC(C)(C)c1nc2ccc(Cl)cn2c1CC1CCCCC1         inactive
19  Cc1ccc(S(=O)(=O)N(C)C[C@H]2Oc3cc(Br)ccc3S(=O)(=O)N([C@H](C)CO)C[C@H]2C)cc1         inactive
20  O=C(C[C@H]1C=C[C@@H](NC(=O)C2CCC2)[C@H](CO)O1)NCCCN1CCOCC1         inactive
21            Cc1cccc(Cn2ncc(Cl)c(Cl)c2=O)c1         inactive
